# MEASUREMENT PROTOCOL: qHTS assay for small molecule activators of the p53 signaling pathway (AID 651743); also: % of control where 0% means no effect
# MEASUREMENT CONDITIONS: HCT-116 p53RE-bla, beta-lactamase FRET ratio, 16 h; active compounds read high
Records with an inconclusive call do not appear.

MOLECULE: CS(=O)(=O)NC(=O)c1cc(Oc2ccc(C(F)(F)F)cc2Cl)ccc1[N+](=O)[O-]
activation, %: -3.62
//
MOLECULE: CC(C)[C@H](C(=O)O[C@H](C#N)c1cccc(Oc2ccccc2)c1)c1ccc(Cl)cc1
activation, %: -0.0449
//
MOLECULE: CNC(=O)Oc1cc(C)c(SC)c(C)c1
activation, %: -3.45
//
MOLECULE: CC(C)C(=O)OCC(C)(C)C(OC(=O)C(C)C)C(C)C (configuration not stated)
activation, %: -0.206
//
MOLECULE: CCSCCSP(=O)(OC)OC
activation, %: 2.18
//
MOLECULE: CCOP(N)(=O)Oc1ccc(SC)c(C)c1 (configuration not stated)
activation, %: -1.01
//
MOLECULE: C#CC(C)(C)NC(=O)c1cc(Cl)cc(Cl)c1
activation, %: -3.76

====

# MEASUREMENT PROTOCOL: Cell Viability - Mesenchymal (AID 546);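 also: cells exposed to compound for 40 hours before reading; 0% = DMSO only and -100% = 100 µM tamoxifen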
# MEASUREMENT CONDITIONS: mesenchymal cells viability, qHTS
Inconclusive results are not listed. Active and inactive are the calls of the source. Calls come from the whole dose curve; as a rule, active = well fitted cell-killing curve with a large enough effect; inconclusive = small, poorly fitted or top-dose-only effect; inactive = flat fitted curve, though single readings scatter.

COMPOUND: c1ccc2cc3c(cc2c1)-c1cccc2cccc-3c12
outcome: inactive
--
COMPOUND: O=[N+]([O-])c1cc(C(F)(F)F)cc([N+](=O)[O-])c1Cl
outcome: inactive
--
COMPOUND: Clc1ccc(C(c2ccc(Cl)cc2)C(Cl)Cl)cc1
outcome: inactive
--
COMPOUND: Oc1c(Br)c(Br)c(Br)c(Br)c1Br
outcome: inactive
--
COMPOUND: FC(F)(F)c1ccc(Cl)cc1
outcome: inactive
--
COMPOUND: O=C(O)C1C(C(=O)O)C2(Cl)C(Cl)=C(Cl)C1(Cl)C2(Cl)Cl (stereo unspecified)
outcome: inactive

====

# TESTED ON: Muscarinic acetylcholine receptor M1 (Rattus norvegicus) (UniProt P08482)
# Sequence (P08482 whole entry, looked up): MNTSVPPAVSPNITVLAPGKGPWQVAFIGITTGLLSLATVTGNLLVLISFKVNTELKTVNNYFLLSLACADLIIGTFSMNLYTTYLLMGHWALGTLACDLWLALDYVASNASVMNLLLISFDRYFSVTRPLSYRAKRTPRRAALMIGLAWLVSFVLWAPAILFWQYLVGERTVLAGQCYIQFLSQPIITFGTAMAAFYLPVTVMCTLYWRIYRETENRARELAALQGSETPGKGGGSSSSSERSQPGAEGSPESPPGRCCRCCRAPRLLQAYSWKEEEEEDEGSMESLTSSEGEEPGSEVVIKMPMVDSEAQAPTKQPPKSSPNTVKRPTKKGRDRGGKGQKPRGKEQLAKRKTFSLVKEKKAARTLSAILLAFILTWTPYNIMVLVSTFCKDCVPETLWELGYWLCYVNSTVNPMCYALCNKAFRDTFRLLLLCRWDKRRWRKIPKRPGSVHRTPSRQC
# MEASUREMENT PROTOCOL: qHTS Assay for Antagonists of Acetylcholine Muscarinic M1 Receptor: Kinetic Measurement of Intracellular Calcium Response (AID 943); also: nearly all actives have a fitted effect of over 75% in size
# MEASUREMENT CONDITIONS: M1-expressing cells, kinetic intracellular calcium fluorescence; series mostly up to 35.3 µM
# Procedure: NIH Molecular Libraries Screening Centers Network [MLSCN] NIH Chemical Genomics Center [NCGC] Acetylcholine muscarinic M1 receptor is a G-protein coupled receptor (GPCR) coupling to the Gq G protein. […] The increase of intracellular calcium can be measured by the fluorescent calcium dyes, Fluo-3 and Fluo-4, using a fluorescence kinetic plate reader. […] #- read the assay plate 6 times at 1 Hz for basal signal […] #- continuously read the assay plate for 4 min at 1 Hz […]
Records with an inconclusive call do not appear. Active and inactive are the calls of the source. Calls come from the whole dose curve; as a rule, active = well fitted inhibition curve with a large enough effect; inconclusive = small, poorly fitted or top-dose-only effect; inactive = no such curve, though single readings can be large or run the other way.
Outcome codes: active, inactive

MOLECULE: CCN(CC)C(=O)N[C@H]1C[C@H]2c3cccc4[nH]cc(c34)C[C@@H]2N(C)C1
CATEGORY LABEL: inactive
--
MOLECULE: C/C=C(\C)C(=O)O[C@@H]1C(C)=C2[C@H]([C@@H]1OC(=O)CCCCCCC)[C@@](C)(OC(C)=O)C[C@@H](OC(=O)CCC)[C@@]1(O)[C@H]2OC(=O)[C@]1(C)O
CATEGORY LABEL: inactive
--
MOLECULE: C[C@]1(C(=O)O)[C@@H]2CC[C@@H](O2)[C@@]1(C)C(=O)O
CATEGORY LABEL: inactive
--
MOLECULE: C=CCN1C[C@@H](C)N([C@H](c2ccc(C(=O)N(CC)CC)cc2)c2cccc(OC)c2)C[C@H]1C
CATEGORY LABEL: active
